Where a name gives a salt, the structure may show the parent alone.
Provide the recorded flash point for the entries that follow.
# include the unit after the value

# flash point of CCCC(C)=O = 7.00 °C

# flash point of O=c1oc2ccccc2c(O)c1C(CC(O)c1ccc(-c2ccc(Br)cc2)cc1)c1ccccc1 (stereo unspecified) = 218.00 °C

# flash point of COC=O [methyl formate] = -32.00 °C

# flash point of CCOCCOCCOCCO [2-[2-(2-ethoxyethoxy)ethoxy]ethanol] = 135.00 °C

# flash point of CCOCCOCCOCC = 54.00 °C

# flash point of COC(=O)CCC(=O)OC [dimethyl butanedioate] = 85.00 °C

# flash point of Oc1c(Cl)cc(Cl)c(Cl)c1Cl = 100.00 °C

# flash point of COc1nc(C)nc(NC(=O)NS(=O)(=O)c2ccccc2CCC(F)(F)F)n1 = 100.00 °C

# flash point of CCCC(CCC)C(=O)O = 111.00 °C

# flash point of CCOC(=O)C(=O)OCC [diethyl oxalate] = 76.00 °C

# flash point of CCN(CC)CCO = 60.00 °C
